Below is a list of entries, each paired with its recorded composite z-score value.
tested on: Sonic hedgehog protein (Shh); experiment: small-molecule binders of Shh protein, primary screen, biochemical, small-molecule microarray, 635/667 nm fluorescence (AID 1151); settings: small-molecule microarray binding, 635 nm fluorescence; higher = more signal;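 further: Shh protein binding to compounds spotted on small-molecule microarray slides; score combines spot fluorescence intensity with signal-to-noise across triplicate slides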
Assay Metric: composite z-score

Input Smiles: CCCNC(=O)[C@@H]1c2ccccc2C(=O)N(C2CCCCC2)[C@H]1c1ccc(CO)cc1
Assayed System: Sonic hedgehog protein (Shh)
Quantitative Readout: 0.573
//
Input Smiles: O=[N+]([O-])c1ccc(C[n+]2ccc3ccc(O)cc3c2)o1
Assayed System: Sonic hedgehog protein (Shh)
Quantitative Readout: 0.841
//
Input Smiles: COc1cc(Cc2cc3c(c(CCc4ccccc4)n2)[Si](C(C)C)(C(C)C)OC3)cc(OC)c1OC
Assayed System: Sonic hedgehog protein (Shh)
Quantitative Readout: 0.553
//
Input Smiles: C[C@@H]1NC(=O)CC=C[C@@H](C)[C@@H]2C=C[C@H](O)[C@@H](COC(=O)[C@H](C)NC(=O)CC=C[C@@H](C)[C@@H]3C=C[C@H](O)[C@@H](COC1=O)O3)O2
Assayed System: Sonic hedgehog protein (Shh)
Quantitative Readout: 1.04
//
Input Smiles: [N-]=[N+]=NCc1ccccc1C[C@]1(C(N)=O)N=C(c2ccc(OCCCO)cc2)O[C@H]1c1ccccc1CN=[N+]=[N-]
Assayed System: Sonic hedgehog protein (Shh)
Quantitative Readout: -0.742
//
Input Smiles: CO[C@H]1COC(=O)[C@H](C)NC(=O)CC=C[C@@H](C)[C@H](NS(=O)(=O)c2ccc(C)cc2)COC(=O)[C@@H](OCc2ccccc2)C=C[C@@H]1C
Assayed System: Sonic hedgehog protein (Shh)
Quantitative Readout: 0.96
//
Input Smiles: C=C(CCCC)C(=O)CC[C@@H](OC(=O)c1cccnc1)c1cccc(OCCO)c1
Assayed System: Sonic hedgehog protein (Shh)
Quantitative Readout: 1.17

###

Below is a list of entries, each paired with its recorded z-score value.
experiment: yeast growth modulation, basal conditions, primary screen, YJM789 clinical isolate, OD600, 24 h (AID 1089);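 further: growth of clinical yeast isolate S. cerevisiae YJM 789 seeded 1000 cells per well; test concentration not given here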; conditions: S. cerevisiae YJM789 growth, higher = more signal, called active from +8 up or from −8 down
Activity calls are given as the source filed them.

Compound: NC(=O)NCC#Cc1ccc2c(c1)[C@]1(C(=O)N2)[C@H](C(=O)N2CCCCCCC2)[C@H]2C(=O)O[C@H](c3ccccc3)[C@H](c3ccccc3)N2[C@@H]1c1ccccc1OCCO
z-score: 0.305 (inactive)

Compound: C=C(C)[C@@H]1CC=C(C(O)C2C=CC3C(=O)NC(=O)C3N2Nc2ccccn2)CC1 (stereo partly drawn)
z-score: 0.0118 (inactive)

Compound: C=C(CCCC)C(=O)CC[C@@H](OC(=O)c1cccnc1)c1cccc(OCCO)c1
z-score: -0.323 (inactive)

Compound: Cc1ccccc1C(O)C1C=CC2C(=O)N(c3ccccc3)C(=O)C2N1Nc1ccc(C#N)cc1 (stereo not drawn)
z-score: 0.907 (inactive)

Compound: CN(C)CCCC[C@@H]1NC(=O)[C@@H]2C[C@H](C(=O)NCCCCCNC(=O)CS)[C@H](c3ccc(O)cc3)N2C1=O
z-score: 0.081 (inactive)

Compound: C[N+](C)(C)CCCCNC(=O)[C@@H]1C[C@@H]2C(=O)N3CCC[C@H]3C(=O)N2[C@@H]1c1cccc(OCCO)c1
z-score: -1.09 (inactive)

Compound: CO[C@@H]1COC(=O)[C@H](COCc2ccccc2)NC(=O)CC=C[C@@H](C)[C@H](OC)COC(=O)[C@H](COCc2ccccc2)NC(=O)CC=C[C@H]1C
z-score: 0.982 (inactive)

Compound: CC[C@@H]1C=C(C(=O)O)[C@H](c2ccccc2)N1S(=O)(=O)c1ccc([N+](=O)[O-])cc1
z-score: 0.308 (inactive)
